- target under test: purified human IDO protein (Homo sapiens)
- Sequence (P14902 whole entry P110S/E119G): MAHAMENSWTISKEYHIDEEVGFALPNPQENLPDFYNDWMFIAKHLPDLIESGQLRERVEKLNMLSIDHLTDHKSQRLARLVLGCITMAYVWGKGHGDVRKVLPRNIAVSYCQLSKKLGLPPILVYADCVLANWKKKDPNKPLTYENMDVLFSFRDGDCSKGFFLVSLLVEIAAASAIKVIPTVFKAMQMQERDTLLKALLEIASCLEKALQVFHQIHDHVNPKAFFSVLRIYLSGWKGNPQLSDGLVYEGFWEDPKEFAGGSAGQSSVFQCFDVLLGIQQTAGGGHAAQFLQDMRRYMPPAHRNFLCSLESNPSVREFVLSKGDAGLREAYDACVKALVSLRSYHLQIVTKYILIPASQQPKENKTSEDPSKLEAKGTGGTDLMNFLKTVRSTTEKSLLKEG
- protocol details: Enzymatic IDO assay (kynurenine production, absorbance 480 nm)
- recorded conditions: hIDO IC50, Table 16; recombinant human IDO, enzymatic activity
pIC50: −log10 of the molar value.
readout label: pIC50

compound: NOCc1cccc(I)c1 [compound 1816, O-(3-iodobenzyl)hydroxylamine]
pIC50: > 5.00
//
compound: NOCc1ccccc1CON
pIC50: 4.00 to 5.00
//
compound: NOC(c1ccccc1)c1ccccc1 [compound 1922, O-benzhydrylhydroxylamine]
pIC50: > 5.00

For record NOCc1cccc(C(F)(F)F)c1 the listed pIC50 is > 5.00

For record C=CCC(ON)c1cccc([N+](=O)[O-])c1 (stereo not drawn) the listed pIC50 is > 5.00

For record NOCc1cc([N+](=O)[O-])cc([N+](=O)[O-])c1 [compound 1657, O-(3,5-dinitrobenzyl)hydroxylamine] the listed pIC50 is > 5.00

For record NOCc1cccc(Cl)c1 [compound 1672, O-(3-chlorobenzyl)hydroxylamine] the listed pIC50 is > 5.00

For record NOCc1ccccc1Br [compound 1675, O-(2-bromobenzyl)hydroxylamine] the listed pIC50 is > 5.00

For record NOCCCc1ccccc1 [compound 1693, O-(3-phenylpropyl)hydroxylamine] the listed pIC50 is 4.00 to 5.00

----------
- target under test: UniProt:P14902
- protocol details: Cell based IDO/kynurenine assay in IDO-293-T-Rex cells
- recorded conditions: kynurenine production, 293T cell line stably expressing human IDO; values reported in ranges; read-out: hIDO EC50
pEC50: −log10 of the molar value.
readout label: pEC50

Check out these entries, answers already filled in.
compound: S=C(NCCc1c[nH]c2ccccc12)SCCc1ccc2c(c1)OCCO2 [compound 53]
pEC50: 4.00 to 4.70

compound: O=C1C(O)=C(CC2=C(O)C(=O)c3ccccc3C2=O)C(=O)c2ccccc21 [compound 477]
pEC50: 4.00 to 4.70

compound: Cc1ccc2cc(CSC(=S)NCCc3c[nH]c4ccccc34)ccc2n1 [compound 38]
pEC50: 4.00 to 4.70

Reported pEC50 (UniProt:P14902) for entry O=C(O)Cc1cccc2sccc12 [compound 307, 2-(benzo[b]thiophen-4-yl)acetic acid] is 2.00 to 3.00

Reported pEC50 (UniProt:P14902) for entry Nc1cc(S(=O)O)c2cccnc2c1O [compound 309] is 3.00 to 4.00

Reported pEC50 (UniProt:P14902) for entry CSC(=S)NCCc1cccc(Cl)c1 [compound 14] is 3.00 to 4.00

----------
Collected EC50 values appear next to each entry.
- target under test: human IDO (Homo sapiens, UniProt P14902)
- Sequence (P14902 whole entry): as the sequence (P14902 whole entry P110S/E119G) above, with S110P, G119E counted along it
- protocol details: Cell based IDO/kynurenine assay in IDO-293-T-Rex cells
- recorded conditions: kynurenine production, 293T cell line stably expressing human IDO; values reported in ranges; read-out: hIDO EC50

Check out these entries, answers already filled in.
molecule: O=C(Cc1csc(=S)[nH]1)NCc1c[nH]c2ccccc12
EC50: 20 to 100 µM
//
molecule: S=C1NC(c2ccccc2)NC(c2ccccc2)S1 (stereo not shown)
EC50: 20 to 100 µM

Reported EC50 (human IDO (Homo sapiens, UniProt P14902)) for entry O=C1CSC(=S)N1Cc1ccc2ccccc2c1 is 20 to 100 µM

Reported EC50 (human IDO (Homo sapiens, UniProt P14902)) for entry S=C(NCCc1c[nH]c2ccccc12)SCc1noc2ccccc12 is 20 to 100 µM

Reported EC50 (human IDO (Homo sapiens, UniProt P14902)) for entry Fc1ccccc1CCSC(=S)NCCc1c[nH]c2ccccc12 is 100 to 1000 µM

Reported EC50 (human IDO (Homo sapiens, UniProt P14902)) for entry S=C(NCCc1c[nH]c2ccccc12)SCCc1c[nH]c2ccccc12 is 20 to 100 µM

Reported EC50 (human IDO (Homo sapiens, UniProt P14902)) for entry O=C1C=Cc2ccccc2C1=O is 20 to 100 µM

Reported EC50 (human IDO (Homo sapiens, UniProt P14902)) for entry S=C(NCCc1c[nH]c2ccccc12)SCc1cc2c(cc1Br)OCO2 is 20 to 100 µM

Reported EC50 (human IDO (Homo sapiens, UniProt P14902)) for entry CSC(=S)NCCc1c[nH]c2cc(C(F)(F)F)cc(C(F)(F)F)c12 is 1000 to 10000 µM

Reported EC50 (human IDO (Homo sapiens, UniProt P14902)) for entry CC(CSC(=S)NCCc1c[nH]c2ccccc12)c1ccccc1 (stereo not shown) is 100 to 1000 µM

Every entry's value here was drawn from patent US20130289083A1.
